Target entity: Estrogen receptor beta (Homo sapiens)
Sequence (Q92731 whole entry): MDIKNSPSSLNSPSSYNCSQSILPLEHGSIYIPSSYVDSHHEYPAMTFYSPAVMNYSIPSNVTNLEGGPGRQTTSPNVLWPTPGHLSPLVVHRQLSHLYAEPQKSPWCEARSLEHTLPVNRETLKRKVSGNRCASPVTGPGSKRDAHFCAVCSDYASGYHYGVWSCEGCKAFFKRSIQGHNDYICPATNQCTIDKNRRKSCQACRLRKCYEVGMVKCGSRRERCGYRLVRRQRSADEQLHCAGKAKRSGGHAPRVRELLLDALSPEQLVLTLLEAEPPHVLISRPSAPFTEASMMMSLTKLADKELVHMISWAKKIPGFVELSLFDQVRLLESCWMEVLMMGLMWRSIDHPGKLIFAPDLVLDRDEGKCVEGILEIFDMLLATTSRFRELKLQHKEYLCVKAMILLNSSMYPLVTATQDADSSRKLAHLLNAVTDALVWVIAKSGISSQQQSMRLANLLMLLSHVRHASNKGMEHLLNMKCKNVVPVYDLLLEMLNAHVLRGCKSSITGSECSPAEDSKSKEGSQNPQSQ
# IC50 per entry
Answer with a number only, understood to be in µM.

[[record]]
compound = "Cc1cc(O)c2c(c1)C(=O)c1cc(O)cc(O[C@@H]3O[C@H](CO)[C@@H](O)[C@H](O)[C@H]3O)c1C2=O [EMODIN 8-O-BETA-D-GLUCOPYRANOSIDE]"
assay_value = 62

[[record]]
compound = "Cc1cc(O)c2c(c1)C(=O)c1cc(O)cc(O)c1C2=O [EMODIN]"
assay_value = 5.2


--- query ---
// recorded IC50 for `O=C1c2ccc(O)cc2C(=O)c2ccc(O)cc21` : 2.4

* * *

Recorded IC50, one value per entry.
Target sequence: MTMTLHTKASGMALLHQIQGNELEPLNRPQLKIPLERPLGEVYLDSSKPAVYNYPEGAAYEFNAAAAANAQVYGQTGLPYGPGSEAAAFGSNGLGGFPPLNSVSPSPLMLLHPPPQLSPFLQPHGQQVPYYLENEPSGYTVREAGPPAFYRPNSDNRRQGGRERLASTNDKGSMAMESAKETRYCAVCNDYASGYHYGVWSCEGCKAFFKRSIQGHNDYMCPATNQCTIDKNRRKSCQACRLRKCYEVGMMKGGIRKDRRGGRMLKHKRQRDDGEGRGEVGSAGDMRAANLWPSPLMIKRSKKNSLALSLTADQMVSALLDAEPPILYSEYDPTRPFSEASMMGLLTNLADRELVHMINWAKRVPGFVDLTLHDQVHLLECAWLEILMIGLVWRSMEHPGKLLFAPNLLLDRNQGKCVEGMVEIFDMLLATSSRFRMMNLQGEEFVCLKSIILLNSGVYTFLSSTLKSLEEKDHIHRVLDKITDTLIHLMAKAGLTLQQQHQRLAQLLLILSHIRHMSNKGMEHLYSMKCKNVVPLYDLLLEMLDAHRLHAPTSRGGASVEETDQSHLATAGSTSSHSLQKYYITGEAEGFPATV
Give the value; after it, write the unit.

[[record]]
compound = "Cc1cc(O)c2c(c1)C(=O)c1cc(O)cc(O[C@@H]3O[C@H](CO)[C@@H](O)[C@H](O)[C@H]3O)c1C2=O [EMODIN 8-O-BETA-D-GLUCOPYRANOSIDE]"
quantity_kind = "IC50"
assay_value = "20 µM"


Continue with the compound presented below.
Memo: `O=C1c2ccc(O)cc2C(=O)c2ccc(O)cc21` , reported IC50: 1.1 µM
